B1: HDV Ribozyme (parent)
chain: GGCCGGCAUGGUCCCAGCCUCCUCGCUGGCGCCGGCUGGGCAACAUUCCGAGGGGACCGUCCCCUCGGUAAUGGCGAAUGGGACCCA

Variants of: B1
assay: self-cleavage, relative activity (ratio to wild type); higher = more cleavage; co-transcriptional
quantity.name: self-cleavage

The following variants have reported results that may help.
ordered_residues="GGCCGGCAUGGUCCCAGCCUCCUCGCUGGCGCCGGUUGGGCAACAUUCCGAGGGGACCGUCCCCUCGGUAAUGGCGAAUCGGACCCA [C36U G80C]" observed=0.12
ordered_residues="GGCCGGCGUGCUCCCAGCCUCCUCGCUGGCGCCGGCUGGGCAACAUUCCGAGGGGACCGUCCCCUCGGUAAUGGCGAAUGGGACCCA [A8G G11C]" observed=0.0437
ordered_residues="GGCCGGCAUGGUCGCAGCCUCCUCGCUGGCGCCGGCUGGGCAACAUUCCGUGGGGACCGUCCCCUCGGUAAUGGCGAAUGGGACCCA [C14G A51U]" observed=0.791
ordered_residues="GGCCGCCAUCGUCCCAGCCUCCUCGCUGGCGCCGGCUGGGCAACAUUCCGAGGGGACCGUCCCCUCGGUAAUGGCGAAUGGGACCCA [G6C G10C]" observed=0.0875
ordered_residues="GGCCGGCAUGGUCCCAGCCUCCUCGCUGGGGCCGGCUGGGCAACAUUCCGCGGGGACCGUCCCCUCGGUAAUGGCGAAUGGGACCCA [C30G A51C]" observed=0.142

Recorded self-cleavage for GGCCGGCAUGGUCCCAGCCUCCUCGCUGGCGCCGGCUGGGAAACAUUCCGAGGGGACCGUCCCCUCGGUGAUGGCGAAUGGGACCCA [C41A A70G] , please?
0.916

Recorded self-cleavage for GGCCGGCAUGGUCCCAGCCUCCUCGCUGGCGCCGGCUGGGCAACAUUCCGAGGGGACCGUUCCCUCGGUAAGGGCGAAUGGGACCCA [C61U U72G] , please?
0.567

Recorded self-cleavage for GGCCGGCAUGGUCCCAGCCCCCUCGCUGGCGCCGGCUGGGCAACAUUCCGAGCGGACCGUCCCCUCGGUAAUGGCGAAUGGGACCCA [U20C G53C] , please?
0.151
